- System: SK-OV-3
- EXPERIMENT: NCI tumour cell line growth inhibition, 48 h
The source made the active and inactive calls. No stated cut-off is given here; in the data, active = GI50 up to about 1.1 µM and inactive = higher.

MOLECULE	GI50
C/C1=C\CC[C@@]2(C)O[C@@H]2C[C@@H]2[C@H](C/C(C)=C/CC1)OC(=O)[C@]21CO1	> 100 µM (inactive)
CC1=CCCC(OC(N)=O)C1 (stereo unspecified)	> 100 µM (inactive)
Cc1cc(Cl)ccc1NC(=O)C(=O)C(C(=O)c1ccc2ccccc2c1)C1OC(=O)c2ccccc21 (stereo unspecified)	15.7 µM (inactive)
CCN(CC)CCC(=O)c1ccc(Oc2ccc(C)cc2)cc1	28.4 µM (inactive)
CCC1CC2C(=O)N(c3ccccc3)C(=O)C2c2[nH]c3ccccc3c21 (stereo unspecified)	13.6 µM (inactive)
S=C1N=C(Cl)/C(=C\c2ccco2)N1	> 100 µM (inactive)

---

- Test system: MDA-MB-231
- EXPERIMENT: NCI tumour cell line growth inhibition, 48 h
Active and inactive are the calls of the source. No stated cut-off is given here; in the data, active = GI50 up to about 1.1 µM and inactive = higher.
Listing of entries alongside the reported GI50.
MEASURE: GI50

COMPOUND	ENDPOINT_RESULT
Nc1nc(N)c2ncn(Cc3ccccc3)c2n1	> 100 µM (inactive)
N#Cc1cnn2c1n[n+]([O-])c1ccc(Cl)cc12	15.1 µM (inactive)
O=c1cc(-c2nc3ccccc3[nH]2)[nH]c2nc(-c3nc4ccccc4[nH]3)cc(-c3ccc(Cl)cc3)c12	15.8 µM (inactive)
CCC(=O)N(c1ccccc1)C(C)CN1CCC(O)(c2ccccc2)CC1 (stereo unspecified)	> 100 µM (inactive)
NCCC(=O)N[C@@H](Cc1cc(O)c(O)c(SCC(NC(=O)CC[C@H](N)C(=O)O)C(=O)NCC(=O)O)c1)C(=O)O (stereo partly specified)	> 50 µM (inactive)
Cc1cc2[nH]c3c(C#N)c(-c4ccccc4)c(/C=N/c4ccc(Cl)cc4)c(=O)n3c2cc1C	> 100 µM (inactive)
Cc1ccc(C(=O)/C=C2/Nc3ccc([N+](=O)[O-])cc3N/C2=C/C(=O)c2ccc(C)cc2)cc1	29.1 µM (inactive)
CCCCCCCCCCCCCCCC1(OC)C[N+](C)(C)CCO1 (stereo unspecified)	1.75 µM (inactive)
COc1cccc(NC(=O)C(C#N)=C(SC)SC)c1	> 100 µM (inactive)
C/C1=C\CC[C@@]2(C)O[C@@H]2C[C@@H]2[C@H](C/C(C)=C/CC1)OC(=O)[C@]21CO1	> 100 µM (inactive)
N#Cc1c(-c2ccc([N+](=O)[O-])cc2)c(C#N)c(=O)n(NS(=O)(=O)c2ccccc2)c1S	21.3 µM (inactive)
COc1ccc(/C=C(\C(=O)OCC(C)C)c2ccc(OC)c(OC)c2)cc1OC	31 µM (inactive)
CCOc1ccc2nc3nc(O)nc(C)c3c(NCCCN(CC)CC)c2c1	> 100 µM (inactive)
CC(CCC=O)CCOCc1ccccc1 (stereo unspecified)	56.6 µM (inactive)
C=CC(O)(CBr)CCC(Br)C(C)(C)Cl (stereo unspecified)	> 10 µM (inactive)
COC(=O)c1ccc(Oc2nc3ccc(C(F)(F)F)cc3nc2-c2ccccc2)cc1	> 100 µM (inactive)
CNC(=O)c1nn[nH]c1Sc1c([N+](=O)[O-])ncn1C	> 100 µM (inactive)
CCc1c(Cc2cccc3ccccc23)n2c(nc1=O)SCC2OCCO (stereo unspecified)	> 100 µM (inactive)
CCOC(=O)C1(C)CCc2sc(N)c(C#N)c21 (stereo unspecified)	> 100 µM (inactive)
O=c1cc(NNc2cccc(F)c2)[nH]c(=O)[nH]1	16.7 µM (inactive)
CC(CCC(=O)O)[C@H]1CCC2[C@H]3C(CC(=O)[C@@]21C)[C@@]1(C)CCC(O)C[C@H]1C[C@@H]3O (stereo partly specified)	> 100 µM (inactive)
NC12CCC(CC1=O)C2 (stereo unspecified)	> 100 µM (inactive)
CC(C)(C)OC(=O)N1[C@@H]2Cc3ccc(N)cc3[C@@]1(C)c1ccccc12	27.7 µM (inactive)
O=C1C2=C(c3ccccc31)C(c1ccccc1)N1C(=O)CSC1=N2 (stereo unspecified)	44.8 µM (inactive)
COc1ccc(N[S+]([O-])c2ccc(Cl)cc2)cc1 (stereo unspecified)	50.4 µM (inactive)
CCCCOC(=O)c1cc(C(=CCC[C@H]2CC[C@@]3(C)[C@@H](CC[C@@H]4[C@@H]3CC[C@]3(C)[C@@H](C(C)CCCC(C)C)CC[C@@H]43)C2)c2cc(Cl)c(O)c(C(=O)OCCCC)c2)cc(Cl)c1O (stereo partly specified)	> 50 µM (inactive)
